# TESTED_ON: KRAS G12V-cRAF (Homo sapiens, UniProt P01116, G12V)
# Construct: expressed in transfected cells
# Sequence (P01116 1-188 isoform P01116-2 G12V): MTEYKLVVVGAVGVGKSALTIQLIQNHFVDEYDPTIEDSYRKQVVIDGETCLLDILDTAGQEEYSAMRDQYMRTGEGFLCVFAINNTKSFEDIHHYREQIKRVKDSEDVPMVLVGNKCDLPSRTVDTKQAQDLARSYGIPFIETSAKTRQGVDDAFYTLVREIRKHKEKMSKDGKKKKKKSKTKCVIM
# PROTOCOL: Cellular KRAS G12V-cRAF Binding Inhibition Assay (NanoBRET, AD293 stable cells)
# Assay type: cell-based
# CONDITION_CONTEXT: 3 h incubation, read-out: NanoBRET KRAS G12V
pIC50: −log10 of the molar value.
So basically: pIC50 at 8 or higher? That is Y. Lower than 8? That is N.

Solved entries (count: 5):
{"MOLECULE": "CC1OCCCn2c(c3c4cc(ccc42)-c2csc(n2)CC(NC(=O)C24CC(C)(C2)C4)C(=O)N2CCCC(N2)C(=O)OCC(C)(C)C3)-c2cc(N3CCN(C)CC3)cnc21 (centres unmarked) [Example 80]", "ASSIGNED_CLASS": "N"}
{"MOLECULE": "COC1CCN(c2cnc3c(c2)-c2c4c5cc(ccc5n2CCCOC3C)-c2csc(n2)CC(NC(=O)C2CC2C(F)F)C(=O)N2CCCC(N2)C(=O)OCC(C)(C)C4)CC1 (centres unmarked) [Example 113]", "ASSIGNED_CLASS": "N"}
{"MOLECULE": "CC1OCCCn2c(c3c4cc(ccc42)-c2csc(n2)CC(NC(=O)C24CC(C)(C2)C4)C(=O)N2CCCC(N2)C(=O)OCC(C)(C)C3)-c2cc(N3CCN(CC(F)F)CC3)cnc21 (centres unmarked) [Example 98]", "ASSIGNED_CLASS": "N"}
{"MOLECULE": "CC1OCCCn2c(c3c4cc(ccc42)-c2csc(n2)CC(NC(=O)C24CC(C)(C2)C4)C(=O)N2CCCC(N2)C(=O)OCC(C)(C)C3)-c2cc(N3CCN(CC(F)(F)F)CC3)cnc21 (centres unmarked) [Example 39]", "ASSIGNED_CLASS": "N"}
{"MOLECULE": "CCN1CCN(c2cnc3c(c2)-c2c4c5cc(ccc5n2CCCOC3C)-c2csc(n2)CC(NC(=O)C23COC(C)(C2)C3)C(=O)N2CCCC(N2)C(=O)OCC(C)(C)C4)CC1 (centres unmarked) [Example 124]", "ASSIGNED_CLASS": "N"}

### Prompt hey, is pIC50 for this one >= 8? CC1OCCCn2c(c3c4cc(ccc42)-c2csc(n2)CC(NC(=O)C2CC2C(F)F)C(=O)N2CCCC(N2)C(=O)OCC(C)(C)C3)-c2cc(N3CCC(N4CCOCC4)CC3)cnc21 (centres unmarked) [Example 106]
### Response N

### Prompt hey, is pIC50 for this one >= 8? CC1OCCCn2c(c3c4cc(ccc42)-c2csc(n2)CC(NC(=O)C2CC2C)C(=O)N2NC(C(=O)OCC(C)(C)C3)C3CC2C3)-c2cc(N3CCN(C)CC3)cnc21 (centres unmarked) [Example 183]
### Response N

### Prompt hey, is pIC50 for this one >= 8? CC1OCCCn2c(c3c4cc(ccc42)-c2csc(n2)CC(NC(=O)C2CC2C(F)F)C(=O)N2CCCC(N2)C(=O)OCC(C)(C)C3)-c2cc(N3CC[S+]([O-])CC3)cnc21 (centres unmarked) [Example 134]
### Response N

### Prompt hey, is pIC50 for this one >= 8? CC1OCCCn2c(c3c4cc(ccc42)-c2csc(n2)CC(NC(=O)C2CC2C(F)F)C(=O)N2CCCC(N2)C(=O)OCC(C)(C)C3)-c2cc(N3CCNCC3)cnc21 (centres unmarked) [Example 112]
### Response N

### Prompt hey, is pIC50 for this one >= 8? CC1OCCCn2c(c3c4cc(ccc42)-c2csc(n2)CC(NC(=O)C2CC2C(F)F)C(=O)N2CCCC(N2)C(=O)OCC(C)(C)C3)-c2cc(N3CCN(C4CC4)CC3)cnc21 (centres unmarked) [Example 85]
### Response N

### Prompt hey, is pIC50 for this one >= 8? CC1OCCCn2c(c3c4cc(ccc42)-c2csc(n2)CC(NC(=O)C2CC2C(F)F)C(=O)N2CCCC(N2)C(=O)OCC(C)(C)C3)-c2cc(N3CC(C)N(C)C(C)C3)cnc21 (centres unmarked) [Example 142]
### Response Y

### Prompt hey, is pIC50 for this one >= 8? CCN1CCN(c2cnc3c(c2)-c2c4c5cc(ccc5n2CCCOC3C)-c2coc(n2)CC(NC(=O)C2C(C)C2C)C(=O)N2NC(C(=O)OCC(C)(C)C4)C3CC2C3)CC1 (centres unmarked) [Example 197]
### Response Y

### Prompt hey, is pIC50 for this one >= 8? CC1OCCCn2c(c3c4cc(ccc42)-c2csc(n2)CC(NC(=O)C2CC2C(F)F)C(=O)N2CCCC(N2)C(=O)OCC(C)(C)C3)-c2cc(N(C)CCN(C)C)cnc21 (centres unmarked) [Example 87]
### Response N
